Just for reference, patent US9102701B2 is where these values come from.

Below, each entry is listed with its recorded pIC50.
target.entity: human progesterone receptor B (Homo sapiens)
Construct: expressed in transfected cells; host or cells: SK-N-MC human neuroblastoma cells, stably transfected with pRChPR-B-neo and pMMTV-LUC
Sequence (P06401 1-933): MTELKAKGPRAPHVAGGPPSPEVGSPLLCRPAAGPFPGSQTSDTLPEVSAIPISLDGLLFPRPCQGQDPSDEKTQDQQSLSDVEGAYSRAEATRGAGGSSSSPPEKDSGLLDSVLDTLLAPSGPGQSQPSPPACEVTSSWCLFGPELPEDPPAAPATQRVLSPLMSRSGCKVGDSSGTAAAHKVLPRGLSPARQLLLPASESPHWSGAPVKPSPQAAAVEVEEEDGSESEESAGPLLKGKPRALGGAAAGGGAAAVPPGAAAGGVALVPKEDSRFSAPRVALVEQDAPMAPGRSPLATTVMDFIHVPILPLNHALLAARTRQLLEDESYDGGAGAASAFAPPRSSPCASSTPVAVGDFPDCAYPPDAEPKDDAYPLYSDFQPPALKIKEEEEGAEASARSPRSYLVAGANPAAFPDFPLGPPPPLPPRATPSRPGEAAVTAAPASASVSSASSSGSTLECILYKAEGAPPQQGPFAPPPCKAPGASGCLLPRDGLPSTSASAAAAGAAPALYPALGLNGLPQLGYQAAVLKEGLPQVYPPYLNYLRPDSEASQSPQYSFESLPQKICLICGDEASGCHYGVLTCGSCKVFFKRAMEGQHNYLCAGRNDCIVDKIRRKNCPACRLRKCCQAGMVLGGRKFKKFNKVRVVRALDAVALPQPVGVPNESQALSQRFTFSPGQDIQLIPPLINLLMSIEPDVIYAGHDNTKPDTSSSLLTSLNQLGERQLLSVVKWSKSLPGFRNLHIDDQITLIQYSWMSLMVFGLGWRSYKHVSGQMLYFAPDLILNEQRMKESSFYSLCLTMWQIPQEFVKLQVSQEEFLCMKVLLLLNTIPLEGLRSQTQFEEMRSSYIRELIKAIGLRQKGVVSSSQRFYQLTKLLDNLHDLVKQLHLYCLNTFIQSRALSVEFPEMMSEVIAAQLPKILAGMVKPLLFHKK
assay.comment: Progesterone receptor-antagonistic action in stably transfected SK-N-MC cells, PR-B, MMTV-LUC reporter
Assay type: cell-based
assay.conditions: read-out: IC50 PR-B
The read-out pIC50 is expressed as -log10 of concentration in moles per litre.

Q: I am curious: what pIC50 value has been reported for C=CCNC(=O)OCC#Cc1ccc([C@H]2C[C@@]3(C)C(CC[C@@]3(O)C(F)(F)C(F)(F)F)C3CCC4=CC(=O)CCC4=C32)cc1 (stereo partly drawn) ?
A: 11.00

Q: What pIC50 value was documented for this molecule, CC(C)(C)NC(=O)OCC#Cc1ccc([C@H]2C[C@@]3(C)C(CC[C@@]3(O)C(F)(F)C(F)(F)F)C3CCC4=CC(=O)CCC4=C32)cc1 (stereo partly drawn) ?
A: 11.00
